# target system: UniProtKB P22303
# Sequence (P22303 whole entry): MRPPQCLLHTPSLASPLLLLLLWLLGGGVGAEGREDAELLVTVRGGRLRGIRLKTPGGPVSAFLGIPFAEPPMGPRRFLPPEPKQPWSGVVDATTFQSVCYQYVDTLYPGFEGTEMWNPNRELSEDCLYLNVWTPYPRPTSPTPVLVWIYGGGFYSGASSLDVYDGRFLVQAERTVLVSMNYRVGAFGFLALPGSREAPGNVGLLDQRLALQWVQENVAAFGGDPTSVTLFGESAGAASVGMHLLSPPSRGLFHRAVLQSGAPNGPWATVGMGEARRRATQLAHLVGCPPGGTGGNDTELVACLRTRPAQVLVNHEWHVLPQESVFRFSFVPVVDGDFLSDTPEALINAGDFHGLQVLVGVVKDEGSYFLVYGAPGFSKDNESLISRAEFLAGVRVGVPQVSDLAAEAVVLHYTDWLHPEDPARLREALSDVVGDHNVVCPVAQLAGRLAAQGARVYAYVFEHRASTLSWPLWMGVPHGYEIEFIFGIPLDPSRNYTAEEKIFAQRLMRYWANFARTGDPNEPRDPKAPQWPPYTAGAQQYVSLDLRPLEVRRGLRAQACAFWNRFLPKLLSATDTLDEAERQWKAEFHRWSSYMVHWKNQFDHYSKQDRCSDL
# Format: functional
The entries below are paired with their reported AC50.

The examples below pair each entry with its known result.
molecule: N=C(N)NCc1cccc([123I])c1 [IOBENGUANE I 123]
AC50: > 30 µM

molecule: CC[C@H]1OC(=O)[C@H](C)[C@@H](O[C@H]2C[C@@](C)(OC)[C@@H](O)[C@H](C)O2)[C@H](C)[C@@H](O[C@@H]2O[C@H](C)C[C@H](N(C)C)[C@H]2O)[C@](C)(OC)C[C@@H](C)C(=O)[C@H](C)[C@@H](O)[C@]1(C)O [CLARITHROMYCIN]
AC50: > 30 µM

molecule: CCN[C@H]1C[C@H](C)S(=O)(=O)c2sc(S(N)(=O)=O)cc21 [DORZOLAMIDE]
AC50: > 30 µM

molecule: COc1nccnc1NS(=O)(=O)c1ccc(N)cc1
AC50: > 30 µM

molecule: O=C1[C@H]2CCCC[C@H]2C(=O)N1CCCCN1CCN(c2nsc3ccccc23)CC1 [PEROSPIRONE]
AC50: > 30 µM

molecule: CCCCCCCC(=O)N[C@H](CN1CCCC1)[C@H](O)c1ccc2c(c1)OCCO2
AC50: > 30 µM

Query :: Endpoint output: AC50 of O=C(O)CCCc1ccc(N(CCCl)CCCl)cc1 [CHLORAMBUCIL] . Value?
Result :: > 30 µM

Query :: Could you share which AC50 value was measured for C[C@@H]1C[C@H]2[C@@H]3C[C@H](F)C4=CC(=O)C=C[C@]4(C)[C@@]3(Cl)[C@@H](O)C[C@]2(C)[C@H]1C(=O)COC(=O)C(C)(C)C [CLOCORTOLONE PIVALATE] ?
Result :: > 30 µM

Query :: What value of AC50 has been reported for the following molecule? CCC(=O)O[C@@H]1CC(=O)O[C@H](C)C/C=C/C=C/[C@H](OC(C)=O)[C@H](C)C[C@H](CC=O)[C@H](O[C@@H]2O[C@H](C)[C@@H](O[C@H]3C[C@@](C)(OC(C)=O)[C@@H](OC(=O)CC)[C@H](C)O3)[C@H](N(C)C)[C@H]2O)[C@H]1OC [MIOCAMYCIN]
Result :: > 30 µM

Query :: Suppose we examine the molecule CNC[C@H](O)c1cccc(O)c1 [PHENYLEPHRINE] ; what AC50 value has been reported?
Result :: > 30 µM

Query :: Please give the measured AC50 for this molecule: CCOC(=O)[C@H](CCc1ccccc1)N[C@@H](C)C(=O)N1Cc2cc(OC)c(OC)cc2C[C@H]1C(=O)O [MOEXIPRIL]
Result :: > 30 µM

Query :: Which AC50 value belongs to CO[C@@]1(NC(=O)CSCC#N)C(=O)N2C(C(=O)O)=C(CSc3nnnn3C)CS[C@@H]21 [CEFMETAZOLE] ?
Result :: > 30 µM

Origin of values: ChEMBL document CHEMBL5291721
